Values compiled from the supplement of paper PMC7801607.

The reader will find reported % viability of CHO cells values listed item by item below.
Test system: CHO
Experiment: % viability of CHO cells (MTT); higher = less toxic
Settings: 2 µM; 48 h
Please give a number only; it is taken to be in %.

In the examples that follow, each entry is paired with its recorded % viability of CHO cells.
CCc1nc2ccc(Cl)cn2c1C(=O)NCc1ccc(N2CCC(c3ccc(OC(F)(F)F)cc3)CC2)cc1 :: 91.1
CCN(CC)S(=O)(=O)c1ccc(Cl)c(C(=O)Nc2sc3c(c2C#N)CCCC3)c1 :: 100
CCCCOC(=O)Nc1cc2nc(C3CCCCC3)[nH]c2cc1N(CC)CC :: 98.9
O=C(NCc1ncc(C(F)(F)F)cc1Cl)c1c(Cl)cccc1Cl :: 91.7
COc1ccc(SC(=O)N[C@H](CCC(=O)O)C(=O)O)cc1 :: 114

Kindly consider the entry below.
Q: State the recorded % viability of CHO cells for this entry: O=C(NCc1ccccc1Cl)c1cnc2ccccc2n1
A: 106

---

Below is a list of entries, each paired with its recorded % inhibition of gametocyte viability value.
System: Plasmodium falciparum NF54 stage IV/V gametocytes
Test: % inhibition of gametocyte viability (PrestoBlue); higher = more inhibition
Conditions: 1 µM; 48 h
Just the number please, in %, no unit attached.

A selection of reference data follows.
Cc1ccc(N2CCC(CCOc3ccc(S(C)(=O)=O)cc3)CC2)nn1 :: 0.785
Cc1c(OCC(F)(F)F)ccnc1CS(=O)c1nc2ccccc2[nH]1 (stereo not given) :: 14.1
Nc1nc(C(F)(F)F)cc2c1[nH]c(=O)n2Cc1ccccc1 :: 2.55
CCCCc1ccc(-c2nc(C)c(C(=O)OC)s2)cc1 :: 5.41

Q: Name the reported % inhibition of gametocyte viability value associated with the compound OB1OCc2c1ccc(Cl)c2F
A: 8.58

Q: Lookup Cc1cc(CCCOc2c(C)cc(-c3noc(C(F)(F)F)n3)cc2C)on1
A: 6.7

Q: Same again, this time with CCc1nc(N)nc(N)c1C#CCc1ccccc1
A: 1.8

Q: What about Fc1ccc2c(/C=C/c3nnn[nH]3)c[nH]c2c1 ?
A: 4.4

Q: Ok, now N#CCN1C(=O)COc2cc(F)c(N3C(=O)c4ccccc4C3=O)cc21
A: 3.4

Q: Please answer likewise for O=C(N[C@H](Cc1cccc2ccccc12)C(=O)NCCc1c[nH]cn1)C1Cc2ccccc2C1
A: 2.53

Q: // next record O=C1c2cccc3cccc(c23)C(=O)N1CC1CO1 (stereo not given)
A: 7.65

---

System: CHO
Assay: % viability of CHO cells (MTT); higher = less toxic
Conditions: 2 µM; 48 h
Recorded metric: % viability of CHO cells (%)
Give the value, in units of %, as a plain number.

Recorded % viability of CHO cells, per entry:
CCOCc1nc2c(N)nc3ccccc3c2n1CC(C)(C)O :: 84
CC(C)CCN1C(=O)C(C2=NS(=O)(=O)c3cc(NS(C)(=O)=O)ccc3N2)=C(O)[C@@H]2[C@H]3CC[C@H](C3)[C@@H]21 :: 99.3
CCCNc1ccc(S(=O)(=O)Nc2cc(C)on2)cc1 :: 93.3
Cc1ncc([N+](=O)[O-])n1CC(C)O (stereo unspecified) :: 92.2
Cc1oncc1C(=O)Nc1ccc(C(F)(F)F)cc1 :: 113

With those in mind, consider the next molecule.
Q: // % viability of CHO cells lookup, key: O=C(Cn1cnc2ccccc2c1=O)Nc1ccccc1
A: 100

---

Measured % inhibition of asexual blood stage proliferation accompanies every entry in the list below.
Tested on: Plasmodium falciparum NF54 asexual blood stage
Assay: % inhibition of asexual blood stage proliferation (pLDH); higher = more inhibition
Details: 2 µM; 72 h
Give just the number in %; leave the unit off.

Take a look at these entries with their results.
COc1nc2ccc(Br)cc2cc1[C@@H](c1ccccc1)[C@@](O)(CCN(C)C)c1cccc2ccccc12 :: 82.9
OC(Cn1cncn1)(Cn1cncn1)c1ccc(F)cc1F :: -1.25
O=C(NCc1ccccc1Cl)c1cnc2ccccc2n1 :: 6.58
CC(C)(C)OC(=O)NCc1ccc(C(=O)N[C@H]2CCOC2=O)cc1 :: 18.3

Please look at the following molecule next.
Q: Reported % inhibition of asexual blood stage proliferation for Plasmodium falciparum NF54 asexual blood stage, given CO[C@@]1(NC(=O)Cc2cccs2)C(=O)N2C(C(=O)O)=C(COC(N)=O)CS[C@@H]21 ?
A: 20

---

System: Plasmodium falciparum NF54 stage IV/V gametocytes
Experiment: % inhibition of gametocyte viability (PrestoBlue); higher = more inhibition
Conditions: 1 µM; 48 h
Doc: threshold 20% (exclusive). Items with % inhibition of gametocyte viability beneath it return yes (1); others return no (0).

CCOC(=O)/C=C/[C@H](C[C@@H]1CCNC1=O)NC(=O)[C@H](CC)n1cccc(NC(=O)c2cc(C)on2)c1=O :: yes (1)
O=C(Nc1cccc(C2=NCCN2)c1)c1ccc(-c2ccc(C(=O)Nc3cccc(C4=NCCN4)c3)cc2)cc1 :: no (0)
Cc1ccc(C)c(OCCCCCCN2C[C@H](O)[C@@H](O)[C@H](O)[C@H]2CO)c1 :: yes (1)
O=C(Nc1ccc(-c2ccccc2)cc1)C1=C(O)C(Cc2ccccc2)OC1=O (centres undefined) :: yes (1)
CN(O)C(=O)c1cc2c(CN3CCC[C@H]3C(N)=O)cn(Cc3ccc(F)cc3)c2cn1 :: no (0)

Q: Item CC(C)(C)c1ccc(Oc2ccc(N)cc2)cc1 : % inhibition of gametocyte viability beneath 20%, strictly?
A: yes (1)

Q: Entry to check: C=C(C)[C@@H]1CC[C@]2(C(=O)O)CC[C@]3(C)[C@H](CC[C@@H]4[C@@]5(C)CC[C@H](O)C(C)(C)[C@@H]5CC[C@]43C)[C@@H]12
A: no (0)

Q: Now consider Cc1cc(C)n2nc(C(=O)NS(=O)(=O)c3c(C)cccc3OC(F)(F)F)nc2n1 and answer again.
A: no (0)

Q: What about CCc1ccc(C2CC(C(F)(F)F)n3ncc(C(=O)NCc4ccc(OC)cc4)c3N2)cc1 (centres undefined) ?
A: yes (1)

Q: Another molecule to check: O=C(c1ccccc1)N1CCN(c2ccccc2NC(=O)C(Cl)(Cl)Cl)CC1
A: yes (1)

---

Test system: Plasmodium falciparum NF54 stage IV/V gametocytes
Assay: % inhibition of gametocyte viability (ATP bioluminescence); higher = more inhibition
Details: 5 µM; 24 h
Recorded metric: % inhibition of gametocyte viability

Cc1ccc(C)c(OCCCCCCN2C[C@H](O)[C@@H](O)[C@H](O)[C@H]2CO)c1 :: < 0%
CC(=O)N1c2ccccc2NC2=C(C(=O)CC(C)(C)C2)C1c1ccc(OCc2ccccc2)cc1 (stereo not drawn) :: 3.14%
O=C(O)c1ccc(-n2nc(-c3ccccc3O)nc2-c2ccccc2O)cc1 :: < 0%
O=S(=O)(Nc1ccc(-n2cccc2)cc1)c1ccc(Cl)c(Cl)c1 :: < 0%
COc1cc(C(C(=O)NC2CCCCC2)N(C(=O)Cc2c[nH]c3ccccc23)c2ccc(C(C)C)cc2)cc(OC)c1OC (stereo not drawn) :: 7.49%
Nc1nc(N)c2c(Sc3ccccc3)cccc2n1 :: 2.83%
CN(C(=O)C1(c2ccc(Cl)cc2)CCC1)c1ccccc1 :: < 0%
CC(C)Oc1ccc(-c2nc(-c3cccc4c3CC[C@@H]4NCCO)no2)cc1C#N :: 84.7%

Q: Param item = COc1cc(C2C3=C(CC(C)(C)CC3=O)Nc3ccccc3N2C(C)=O)ccc1OCc1ccccc1 (stereo not drawn) ; retrieve measured % inhibition of gametocyte viability.
A: < 0%

Q: // query: Nc1cccc(-c2nc(N)nc(NC3Cc4ccccc4C3)n2)c1
A: < 0%

---

System: CHO
Experiment: % viability of CHO cells (MTT); higher = less toxic
Conditions: 20 µM; 48 h
Recorded metric: % viability of CHO cells (%)
Please reply with the bare figure in % and do not write the unit itself.

COc1ccc(SC(=O)N[C@H](CCC(=O)O)C(=O)O)cc1 :: 122
c1cnc(NCc2ccc(CNc3ncccn3)cc2)nc1 :: 77.7

Q: Recorded % viability of CHO cells for NC(=O)c1cnccn1 , please?
A: 75.7

Q: What would you report for C[C@@H](NC(=O)c1cccc(-c2c[nH]c(-c3cc4ccccc4cn3)n2)c1)c1ccc(F)cc1 ?
A: 101

---

Test system: Plasmodium falciparum NF54 asexual blood stage
Test: % inhibition of asexual blood stage proliferation (pLDH); higher = more inhibition
Conditions: 2 µM; 72 h
Recorded metric: % inhibition of asexual blood stage proliferation (%)
# output: bare number, implied unit %

O=S(=O)(Nc1cccc2cccnc12)c1ccccc1 :: 8.89
Cc1cc(O)c2c(c1)C(=O)c1c(I)c(O)c(I)c(O)c1C2=O :: 30.5

# evaluate next
Q: Could you share what % inhibition of asexual blood stage proliferation was measured for [N-]=[N+]=N[C@H]1C[C@H](n2ccc(=O)[nH]c2=O)O[C@@H]1CO , tested on Plasmodium falciparum NF54 asexual blood stage?
A: -15.7
